Sourced from patent US20100004431A1

For each record, write down the corresponding Fold change in Kd vs. H0L0.
- SYSTEM_TESTED: T1, CD25 (R&D systems cat. #223-2A/CF) (UniProt P01589 22-213, limits assumed)
- T1 construct: Bought soluble protein
- T1 sequence (looked up): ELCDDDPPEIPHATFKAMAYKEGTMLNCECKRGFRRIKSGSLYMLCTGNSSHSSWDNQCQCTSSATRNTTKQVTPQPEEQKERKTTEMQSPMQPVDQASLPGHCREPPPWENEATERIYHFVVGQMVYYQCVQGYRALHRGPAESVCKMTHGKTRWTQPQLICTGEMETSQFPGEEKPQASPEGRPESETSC
- ASSAY_PROCEDURE: Biacore (SPR); antibody captured on Protein A, CD25 injected
Give bare numbers, in fold.

A selection of reference data follows.
BINDER	UOM	REPORTED_MEASUREMENT
anti-CD25 H1.22L1.56 (antibody, V domains shown) VH: QVQLVQSGAEVKKPGASVKVSCKASGYTFTSYRMHWVRQAPGQGLEWMGWINPNSGGTNYAQKFQGRVTITRDTSISTAYMELSRLRSDDTAVYYCARGGGVFDYWGQGTLVTVSS VL: QIVLTQSPATLSLSPGERATLSCRASQSVSYLHWFQQKPGQSPQLLIYTTSNRATGIPARFSGSGSGTDFTLTISSLEPEDFAVYYCHQRSTYPLTFGSGTKLEIK	fold	1.2
anti-CD25 H1L1.20 (antibody, V domains shown, also called VL combination variant L1.20 paired with H1) VH: QVQLVQSGAEVKKPGASVKVSCKASGYTFTSYRMHWVRQAPGQGLEWMGYINPSTGYTEYNQKFQGRVTITADKSISTAYMELSRLRSDDTAVYYCARGGGVFDYWGQGTLVTVSS VL: EIVLTQSPATLSLSPGERATLSCRASQSVSYLHWYQQKPGQAPRLLIYTTSNRATGIPARFSGSGSGTDFTLTISSLEPEDFAVYYCHQRSTYPLTFGSGTKLEIK	fold	-4.2

Could you now consider this next binder?
Ask: Can you look up the measured Fold change in Kd vs. H0L0 of anti-CD25 H1L1.48 (antibody, V domains shown, also called VL combination variant L1.48 paired with H1) VH: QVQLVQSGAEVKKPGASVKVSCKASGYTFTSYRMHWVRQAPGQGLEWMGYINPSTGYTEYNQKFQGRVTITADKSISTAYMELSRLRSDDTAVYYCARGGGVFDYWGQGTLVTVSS VL: EIVLTQSPATLSLSPGERATLSCRASQSVSYMHWYQQKPGQAPRLLIYTTSNRATGIPARFSGSGSGTDFTLTISSLEPEDFAVYYCHQRSTYPLTFGSGTKLEIK for me?
Result: -2.4
